Please provide measured melting point for the entries that follow.

In: Requested read-out: melting point. Entry: COc1ccc(N2CCN(CCc3ccc(CN4C(=O)c5ccccc5S4(=O)=O)cc3)CC2)cc1 [Compound 10]
Out: 149 to 150 °C

In: Requested read-out: melting point. Entry: O=C1c2ccccc2S(=O)(=O)N1Cc1ccc(CCN2CCN(c3ccc(Cl)cc3)CC2)cc1 [Compound 16]
Out: 158 to 159 °C

In: Requested read-out: melting point. Entry: O=C1c2ccccc2S(=O)(=O)N1Cc1ccc(CCN2CCN(c3ccccc3Cl)CC2)cc1 [Compound 14]
Out: 135 to 136 °C

In: Requested read-out: melting point. Entry: O=C1c2ccccc2S(=O)(=O)N1Cc1ccc(CCN2CCN(c3ccccc3)CC2)cc1 [Compound 4]
Out: 147 to 148 °C

In: Requested read-out: melting point. Entry: N#Cc1ccc(N2CCN(CCc3ccc(CN4C(=O)c5ccccc5S4(=O)=O)cc3)CC2)cc1 [Compound 20]
Out: 179 to 180 °C

In: Requested read-out: melting point. Entry: Cc1cccc(N2CCN(CCc3ccc(CN4C(=O)c5ccccc5S4(=O)=O)cc3)CC2)c1 [Compound 7]
Out: 126 to 127 °C

In: Requested read-out: melting point. Entry: COc1cccc(N2CCN(CCc3ccc(CN4C(=O)c5ccccc5S4(=O)=O)cc3)CC2)c1 [Compound 9]
Out: 134 to 135 °C

In: Requested read-out: melting point. Entry: O=C1c2ccccc2S(=O)(=O)N1Cc1ccc(CCN2CCN(c3ccc(F)cc3)CC2)cc1 [Compound 12]
Out: 152 to 153 °C

In: Requested read-out: melting point. Entry: O=C1c2ccccc2S(=O)(=O)N1Cc1ccc(CCN2CCN(c3ccc(F)cc3F)CC2)cc1 [Compound 13]
Out: 113 to 114 °C

In: Requested read-out: melting point. Entry: O=C1c2ccccc2S(=O)(=O)N1Cc1ccc(CCN2CCN(c3cccc(Cl)c3Cl)CC2)cc1 [Compound 17]
Out: 178 to 179 °C

In: Requested read-out: melting point. Entry: O=C1c2ccccc2S(=O)(=O)N1Cc1ccc(CCN2CCN(c3ccc(Br)cc3)CC2)cc1 [Compound 18]
Out: 105 to 106 °C

In: Requested read-out: melting point. Entry: N#Cc1ccccc1N1CCN(CCc2ccc(CN3C(=O)c4ccccc4S3(=O)=O)cc2)CC1 [Compound 19]
Out: 146 to 147 °C

In: Requested read-out: melting point. Entry: O=C1c2ccccc2S(=O)(=O)N1Cc1ccc(CCN2CCN(c3ccc(C(F)(F)F)cc3)CC2)cc1 [Compound 21]
Out: 108 to 109 °C

In: Requested read-out: melting point. Entry: Cc1ccc(N2CCN(CCc3ccc(CN4C(=O)c5ccccc5S4(=O)=O)cc3)CC2)cc1 [Compound 8]
Out: 130 to 131 °C

In: Requested read-out: melting point. Entry: O=C1c2ccccc2S(=O)(=O)N1Cc1ccc(CCN2CCN(c3ncccn3)CC2)cc1 [Compound 6]
Out: 153 to 154 °C

In: Requested read-out: melting point. Entry: O=C1c2ccccc2S(=O)(=O)N1Cc1ccc(CCN2CCN(c3ccccc3F)CC2)cc1 [Compound 11]
Out: 137 to 138 °C

In: Requested read-out: melting point. Entry: O=C1c2ccccc2S(=O)(=O)N1Cc1ccc(CCN2CCN(c3cccc(Cl)c3)CC2)cc1 [Compound 15]
Out: 143 to 144 °C

In: Requested read-out: melting point. Entry: O=C1c2ccccc2S(=O)(=O)N1Cc1ccc(CCN2CCN(c3ccccn3)CC2)cc1 [Compound 5]
Out: 149 to 150 °C

The reported measurements were obtained from paper PMC6150201.
